- Test system: Tyrosine-protein kinase ABL1 (Homo sapiens), P00519 [T315I]
- PARTICULARS: at 1 µM
Please provide measured inhibition for the entries that follow.
Kindly provide the numeric value in % only, without the unit symbol.

Recorded inhibition for Cc1nnc(-c2ccc(C)c(-c3ccc(C(=O)Nc4cccc(C#N)c4)cc3)c2)o1 with Tyrosine-protein kinase ABL1 (Homo sapiens), P00519 [T315I], please?
2.58

Find the measured inhibition: item Fc1cccc(COc2ccc(Nc3ncnc4sc(-c5cccs5)cc34)cc2Cl)c1 , target or system Tyrosine-protein kinase ABL1 (Homo sapiens), P00519 [T315I].
0.93

# get_value(readout= inhibition, system= Tyrosine-protein kinase ABL1 (Homo sapiens), P00519 [T315I]) for CCCN1CCC=C(c2ccc(Nc3nc(Nc4ccccc4C(N)=O)c4cc[nH]c4n3)c(C)c2)C1
12.1

Request body: readout inhibition, system Tyrosine-protein kinase ABL1 (Homo sapiens), P00519 [T315I], query COc1cc2c(cc1Nc1nc(N3CCc4ccccc43)c3cc[nH]c3n1)N(C(=O)CN(C)C)CC2 . Return the value.
-1.44

Which measured inhibition belongs to COc1cc2ncn(-c3cc(OCc4ccccc4Cl)c(C(N)=O)s3)c2cc1OC , tested on Tyrosine-protein kinase ABL1 (Homo sapiens), P00519 [T315I]?
27.1

So what inhibition did CCn1c(-c2nonc2N)nc2cnc(Oc3cccc(NC(=O)c4ccc(OCCN5CCOCC5)cc4)c3)cc21 get with Tyrosine-protein kinase ABL1 (Homo sapiens), P00519 [T315I]?
4.26

Short answer please: inhibition, Tyrosine-protein kinase ABL1 (Homo sapiens), P00519 [T315I], entry COc1cccc(-n2ncc3c(N/N=C/c4cccc(F)c4)ncnc32)c1
51.8

Test system Tyrosine-protein kinase ABL1 (Homo sapiens), P00519 [T315I]; read-out inhibition; what value for COc1cc(C)c(NC(=O)CN(C)C)cc1Nc1nc(Nc2cccc(F)c2C(N)=O)c2cc[nH]c2n1 ?
0.49

Any idea what inhibition came out for CS(=O)(=O)Nc1ccc(N/C=C2\C(=O)Nc3ccccc32)cc1 on Tyrosine-protein kinase ABL1 (Homo sapiens), P00519 [T315I]?
18.3

Where do these numbers come from? They come from ChEMBL document CHEMBL1961873.
